Where these numbers come from: ChEMBL document CHEMBL1765045

biological target: CYP2C19 (Homo sapiens, UniProt P33261); test: Inhibition of human CYP2C19 expressed in baculovirus-infected insect microsomes at 10 uM; type: ADME, Microsome
Sequence (P33261 whole entry): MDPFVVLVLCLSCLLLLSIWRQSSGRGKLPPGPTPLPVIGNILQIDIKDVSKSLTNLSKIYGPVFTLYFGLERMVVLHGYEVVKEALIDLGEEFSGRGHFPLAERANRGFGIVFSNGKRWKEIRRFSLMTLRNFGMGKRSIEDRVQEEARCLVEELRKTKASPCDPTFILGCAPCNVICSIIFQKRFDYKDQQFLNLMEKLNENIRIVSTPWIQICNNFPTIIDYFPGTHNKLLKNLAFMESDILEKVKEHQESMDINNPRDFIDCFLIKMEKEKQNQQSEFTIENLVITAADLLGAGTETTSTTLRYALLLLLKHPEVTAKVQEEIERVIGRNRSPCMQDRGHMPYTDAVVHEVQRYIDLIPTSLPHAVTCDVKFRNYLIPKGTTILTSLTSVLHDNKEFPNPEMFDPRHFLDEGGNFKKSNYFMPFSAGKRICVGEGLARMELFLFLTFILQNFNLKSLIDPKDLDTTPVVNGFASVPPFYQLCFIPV
Listing of entries alongside the reported inhibition at 10 µM.

Recorded results for 5 molecules are shown here.
>>> test_result("O=C1CCc2cc(-c3cccnc3)cc3c2N1CCC3")
"44%"
>>> test_result("O=C1CCc2cc(-c3cncc4ccccc34)cc3c2N1CCC3")
"96%"
>>> test_result("O=C1CCc2cc(-c3cncc(-c4cccc(F)c4)c3)cc3c2N1CC3")
"21%"
>>> test_result("O=C1CCc2cc(-c3cccnc3)cc3c2N1CC3")
"< 5%"
>>> test_result("COc1cncc(-c2cc3c4c(c2)CCC(=O)N4CCC3)c1")
"61%"

Now consider a different molecule.
Return inhibition at 10 µM for the following molecule: "COc1cncc(-c2cc3c4c(c2)CCN4C(=O)CC3)c1"
30%
